List of percent of parent values.
Molecular target: codon optimized Vif SLQ144-146AAA MAPPIT prey (pMG2-VifoptSLQ), P12504
Assay: MAPPIT
Settings: chain shown with the change

Some entries whose results are on file:
Apobec3G-GFP MAPPIT bait (pCEL-Apobec3G-GFP), Q9HC16 L27R (protein) MKPHFRNTVERMYRDTFSYNFYNRPIRSRRNTVWLCYEVKTKGPSRPPLDAKIFRGQVYSELKYHPEMRFFHWFSKWRKLHRDQEYEVTWYISWSPCTKCTRDMATFLAEDPKVTLTIFVARLYYFWDPDYQEALRSLCQKRDGPRATMKIMNYDEFQHCWSKFVYSQRELFEPWNNLPKYYILLHIMLGEILRHSMDPPTFTFNFNNEPWVRGRHETYLCYEVERMHNDTWVLLNQRRGFLCNQAPHKHGFLEGRHAELCFLDVIPFWKLDLDQDYRVTCFTSWSPCFSCAQEMAKFISKNKHVSLCIFTARIYDDQGRCQEGLRTLAEAGAKISIMTYSEFKHCWDTFVDHQGCPFQPWDGLDEHSQDLSGRLRAILQNQEN: 26 % of WT
Apobec3G-GFP MAPPIT bait (pCEL-Apobec3G-GFP), Q9HC16 R136S (protein) MKPHFRNTVERMYRDTFSYNFYNRPILSRRNTVWLCYEVKTKGPSRPPLDAKIFRGQVYSELKYHPEMRFFHWFSKWRKLHRDQEYEVTWYISWSPCTKCTRDMATFLAEDPKVTLTIFVARLYYFWDPDYQEALSSLCQKRDGPRATMKIMNYDEFQHCWSKFVYSQRELFEPWNNLPKYYILLHIMLGEILRHSMDPPTFTFNFNNEPWVRGRHETYLCYEVERMHNDTWVLLNQRRGFLCNQAPHKHGFLEGRHAELCFLDVIPFWKLDLDQDYRVTCFTSWSPCFSCAQEMAKFISKNKHVSLCIFTARIYDDQGRCQEGLRTLAEAGAKISIMTYSEFKHCWDTFVDHQGCPFQPWDGLDEHSQDLSGRLRAILQNQEN: 53 % of WT

Attention now turns to another entry.
Form field: reported percent of parent of Apobec3G-GFP MAPPIT bait (pCEL-Apobec3G-GFP), Q9HC16 R102G (protein) MKPHFRNTVERMYRDTFSYNFYNRPILSRRNTVWLCYEVKTKGPSRPPLDAKIFRGQVYSELKYHPEMRFFHWFSKWRKLHRDQEYEVTWYISWSPCTKCTGDMATFLAEDPKVTLTIFVARLYYFWDPDYQEALRSLCQKRDGPRATMKIMNYDEFQHCWSKFVYSQRELFEPWNNLPKYYILLHIMLGEILRHSMDPPTFTFNFNNEPWVRGRHETYLCYEVERMHNDTWVLLNQRRGFLCNQAPHKHGFLEGRHAELCFLDVIPFWKLDLDQDYRVTCFTSWSPCFSCAQEMAKFISKNKHVSLCIFTARIYDDQGRCQEGLRTLAEAGAKISIMTYSEFKHCWDTFVDHQGCPFQPWDGLDEHSQDLSGRLRAILQNQEN
44 % of WT
